Sourced from patent US11505575B2

# Tested Target: human PCSK9 / human LDLR EGFa domain interaction (Homo sapiens, UniProt Q8NBP7)
# Sequence (Q8NBP7 153-692): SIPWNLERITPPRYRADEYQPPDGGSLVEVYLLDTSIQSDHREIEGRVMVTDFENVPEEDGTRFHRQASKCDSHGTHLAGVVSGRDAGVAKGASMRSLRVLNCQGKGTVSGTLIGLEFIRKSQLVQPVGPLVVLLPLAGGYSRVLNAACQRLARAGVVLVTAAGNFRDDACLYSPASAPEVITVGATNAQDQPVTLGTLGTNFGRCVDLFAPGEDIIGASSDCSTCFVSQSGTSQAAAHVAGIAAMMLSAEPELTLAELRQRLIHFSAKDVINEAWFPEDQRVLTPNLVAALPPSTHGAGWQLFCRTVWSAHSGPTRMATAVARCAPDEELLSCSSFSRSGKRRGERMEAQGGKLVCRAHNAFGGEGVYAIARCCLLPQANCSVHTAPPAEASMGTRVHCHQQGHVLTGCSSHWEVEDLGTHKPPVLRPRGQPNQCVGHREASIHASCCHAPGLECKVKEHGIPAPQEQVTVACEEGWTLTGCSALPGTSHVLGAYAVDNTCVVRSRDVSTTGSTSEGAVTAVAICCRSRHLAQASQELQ
# Sequence (Q8NBP7 31-152 partner limits assumed): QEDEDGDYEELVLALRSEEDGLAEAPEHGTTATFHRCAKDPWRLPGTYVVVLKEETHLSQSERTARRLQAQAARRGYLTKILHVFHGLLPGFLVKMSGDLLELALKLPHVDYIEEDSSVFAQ
# Test Name: TR-FRET assay of inhibition of the PCSK9-LDLR protein-protein interaction
# Format: binding
# Condition Description: 20 nM biotinylated human PCSK9 + 20 nM his-tagged human LDLR EGFa domain, 2 hours room temperature
pIC50: −log10 of the molar value. *1 amine or outer side, *2 acyl side, *3 side chain or, on linkers, in order; H or OH if unused. Where a SMILES comes first, the peptide text is derived from it. Bridges are numbered along the chain shown (N, C = ends). [ ]: non-standard residue; d: D form. αMeNva(5-ylidene) = C[C@@](CCC=[*:3])(N[*:1])C(=O)[*:2]; Trp(7-aza) = N[C@@H](Cc1c[nH]c2ncccc12)C(=O)O; X1 = C[C@@](CCCCC=[*:3])(N[*:1])C(=O)[*:2]; X2 = O=C(CCSCc1cccc(CSCCN[*:1])c1)[*:2]; 1Nal = N[C@@H](Cc1cccc2ccccc12)C(=O)O; mXylylene = c1cc(C[*:1])cc(C[*:2])c1; Aad = N[C@@H](CCCC(=O)O)C(=O)O; Tle = CC(C)(C)[C@H](N)C(=O)O; αMeV = CC(C)[C@](C)(N)C(=O)O; Nva = CCC[C@H](N)C(=O)O; Aib = CC(C)(N)C(=O)O; Mpa = O=C(O)CCS
Quantity Kind: pIC50

Below, each entry is followed by its recorded pIC50 result.
INSERT INTO assay_data (compound, quantity_kind, test_value) VALUES
  ('CC1O[C@@H](C)[C@@H]2NC(=O)[C@@]1(C)NC(=O)[C@H](Cc1ccc(OP(=O)(O)O)cc1)NC(=O)[C@H](C)NC(=O)C(C)(C)NC(=O)[C@H](Cc1c[nH]c3ncccc13)NC(=O)[C@H]([C@@H](C)O)NC(=O)[C@@H]1CCCN1C(=O)[C@H](Cc1ccc(O)cc1)NC(=O)[C@H](C(C)(C)C)NC(=O)CCSCc1cccc(c1)CSC[C@@H](C(N)=O)NC2=O (some centres unmarked)', 'pIC50', '7.00 to 9.00'),
  ('CC(C)[C@@H]1NC(=O)CCSCc2cccc(c2)CSCCNC(=O)[C@H](C)NC(=O)[C@](C)(C(C)C)NC(=O)[C@H](Cc2ccccc2)NC(=O)[C@H](C)NC(=O)C(C)(C)NC(=O)[C@H](Cc2cccc3ccccc23)NC(=O)[C@H]([C@@H](C)O)NC(=O)[C@@H]2CCCN2C(=O)[C@H](Cc2ccccc2)NC1=O [Compound 021] (cyclo([1Nal][Aib]AF[αMeV]A[X2]VFPT))', 'pIC50', '6.00 to 7.00'),
  ('CCC[C@@H]1NC(=O)[C@H](Cc2c[nH]c3ncccc23)NC(=O)[C@H]([C@@H](C)O)NC(=O)[C@@H]2CCCCNC(=O)CC[C@H](NC1=O)C(=O)N[C@@H](Cc1ccc(O)cc1)C(=O)NC(C)(C)C(=O)N[C@@H]([C@@H](C)O)C(=O)N[C@H](C(N)=O)CSCc1cccc(c1)CSCCC(=O)N[C@@H](C(C)(C)C)C(=O)N[C@@H](Cc1ccc(O)cc1)C(=O)N2 [Compound 114] ([Mpa][Tle]YKT[Trp(7-aza)][Nva]EY[Aib]TC-NH2; linker 1-12 via mXylylene; lactam 4-8)', 'pIC50', '6.00 to 7.00'),
  ('CCC[C@@H]1NC(=O)[C@H](Cc2ccc(O)cc2)NC(=O)[C@@H]2CCC(=O)NCCCC[C@H](NC(=O)[C@H](Cc3ccc(O)cc3)NC(=O)[C@H](C(C)(C)C)NC(=O)CCSCc3cccc(c3)CSC[C@@H](C(N)=O)NC(=O)[C@H]([C@@H](C)O)NC1=O)C(=O)N[C@@H]([C@@H](C)O)C(=O)N[C@@H](Cc1c[nH]c3ncccc13)C(=O)NC(C)(C)C(=O)N2 [Compound 110] ([Mpa][Tle]YKT[Trp(7-aza)][Aib]EY[Nva]TC-NH2; linker 1-12 via mXylylene; lactam 4-8)', 'pIC50', '7.00 to 9.00');

Kindly consider the entry below.
# pIC50 measured on human PCSK9 / human LDLR EGFa domain interaction (Homo sapiens, UniProt Q8NBP7) for item CCC[C@@H]1NC(=O)[C@H](Cc2ccc(O)cc2)NC(=O)[C@H](C)NC(=O)[C@]2(C)CC/C=C\CCCC[C@](C)(NC1=O)C(=O)N[C@H](C(N)=O)CCCCNC(=O)CCC[C@H](NC(C)=O)C(=O)N[C@@H](C(C)(C)C)C(=O)N[C@@H](Cc1ccc(O)cc1)C(=O)N1CCC[C@H]1C(=O)N[C@@H]([C@@H](C)O)C(=O)N[C@@H](Cc1c[nH]c3ncccc13)C(=O)N2 [Compound 104] (Ac-[Aad][Tle]YPT[Trp(7-aza)][αMeNva(5-ylidene)]AY[Nva][X1]K-NH2; lactam 1-12; staple (Z) 7-11) = 4.92 to 6.00
